meta.source: patent US20100292185A1

Recorded MIC of example compound, E. cloacae P99+ by entry
- System: E. cloacae expressing the Class C P99+
- METHOD DESCRIPTION: In vitro antibacterial assay of β-lactamase inhibition (broth microdilution MIC), E. cloacae P99+
- Format: cell-based
- ASSAY CONDITIONS: in presence of Ceftazidime 8 μg/ml (Examples 1-56)
Counter-ions that a name gives are not always drawn.
Answer in µg/mL, number only, no unit symbol.

>>> reported("Cl.O=C(N[C@@H](Cc1cccc(C(=O)O)c1O)B(O)O)c1ccc(CNCc2cccnc2)cc1")
1

Note to self: MIC of example compound, E. cloacae P99+ recorded for C/C(=N/O)C(=O)N[C@@H](Cc1cccc(C(=O)O)c1O)B(O)O was 1

Lookup result for C[N+]1(Cc2ccc(CC(=O)N[C@@H](Cc3cccc(C(=O)O)c3O)B(O)O)cc2)CCOCC1 [Example 41, formate] ; measured MIC of example compound, E. cloacae P99+: 1

====

Parameter: pIC50. Scope: all listed entries.
- TEST TARGET: p99 AmpC β-lactamase (Enterobacter cloacae)
- Construct: expressed as native untagged proteins; made in house; host or cells: E. coli BL21(DE3)
- Sequence (P05364 21-381): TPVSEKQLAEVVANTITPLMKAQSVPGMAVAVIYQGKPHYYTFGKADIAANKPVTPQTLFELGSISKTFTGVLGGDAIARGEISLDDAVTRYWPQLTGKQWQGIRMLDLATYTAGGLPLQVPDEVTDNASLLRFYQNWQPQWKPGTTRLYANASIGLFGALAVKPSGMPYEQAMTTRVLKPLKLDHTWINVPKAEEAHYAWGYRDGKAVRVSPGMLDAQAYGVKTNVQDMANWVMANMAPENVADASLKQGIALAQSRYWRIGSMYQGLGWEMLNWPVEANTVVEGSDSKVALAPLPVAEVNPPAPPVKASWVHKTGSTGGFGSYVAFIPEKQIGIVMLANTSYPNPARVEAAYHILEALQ
- METHOD DESCRIPTION: β-lactamase enzyme inhibition assay (nitrocefin substrate), P99 AmpC
- Format: biochemical
- ASSAY CONDITIONS: nitrocefin 100 μM, 37° C., PBS pH 7.0; read-out: P99 AmpC IC50
Where a name gives a salt, the structure may show the parent alone.
// scale note: pIC50 = -log10(conc_M); give the bare number

The cases that follow already have their pIC50 on record.
>>> reported("CO/N=C(\\C(=O)N[C@@H](Cc1cccc(C(=O)O)c1O)B(O)O)c1csc(NC(=O)CN)n1.Cl [Example 51, hydrochloride]")
7.77
>>> reported("Cl.O=C(N[C@@H](Cc1cccc(C(=O)O)c1O)B(O)O)c1ccc(CNCc2cccnc2)cc1 [Example 17, hydrochloride]")
8.10
>>> reported("O=C(O)CNCc1ccc(CC(=O)N[C@@H](Cc2cccc(C(=O)O)c2O)B(O)O)cc1")
8.22

Bench note, p99 AmpC β-lactamase (Enterobacter cloacae): NCc1cccc(C(=O)N[C@@H](Cc2cccc(C(=O)O)c2O)B(O)O)c1 [Example 1, hydrochloride] , pIC50 reads 9.00

Given the molecule Nc1cccc[n+]1Cc1ccc(CC(=O)N[C@@H](Cc2cccc(C(=O)O)c2O)B(O)O)cc1 and test system p99 AmpC β-lactamase (Enterobacter cloacae), the measured pIC50 is 8.00

Entry O=C(Cc1ccc(CN(CCO)CCO)cc1)N[C@@H](Cc1cccc(C(=O)O)c1O)B(O)O : pIC50 on p99 AmpC β-lactamase (Enterobacter cloacae) = 7.92

====

- TEST TARGET: CTX-M15 β-lactamase (Escherichia coli, UniProt Q9EXV5)
- Construct: expressed as native untagged proteins; made in house; host or cells: E. coli BL21(DE3)
- Sequence (Q9EXV5 entry or part of it): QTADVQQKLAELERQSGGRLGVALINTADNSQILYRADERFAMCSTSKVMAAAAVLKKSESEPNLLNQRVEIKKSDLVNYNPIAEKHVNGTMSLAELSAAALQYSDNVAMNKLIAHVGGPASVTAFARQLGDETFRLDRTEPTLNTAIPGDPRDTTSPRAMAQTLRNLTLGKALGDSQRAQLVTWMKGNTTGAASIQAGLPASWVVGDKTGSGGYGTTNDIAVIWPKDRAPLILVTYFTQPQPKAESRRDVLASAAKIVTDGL
- METHOD DESCRIPTION: β-lactamase enzyme inhibition assay (nitrocefin substrate), CTXM-15
- Assay type: biochemical
Structures can show the parent of a compound that is named as a salt.
The reader will find reported IC50 values listed item by item below.
Field: numeric (nM). Do not append units.

Solved entries (count: 3):
>>> reported("CC(C)(O/N=C(\\C(=O)N[C@@H](Cc1cccc(C(=O)O)c1O)B(O)O)c1csc(NC(=O)CN)n1)C(=O)O.Cl [Example 50, hydrochloride]")
34
>>> reported("CN(C)Cc1cccc(C(=O)N[C@@H](Cc2cccc(C(=O)O)c2O)B(O)O)c1")
3
>>> reported("Nc1cc(CC(=O)N[C@@H](Cc2cccc(C(=O)O)c2O)B(O)O)ccn1 [Example 45, formate]")
0.5

For NCc1cccc(C(=O)N[C@@H](Cc2cccc(C(=O)O)c2O)B(O)O)c1 [Example 1, hydrochloride] the compound record lists IC50 as 3

Just so you know, measured IC50 for Nc1cccc[n+]1Cc1ccc(CC(=O)N[C@@H](Cc2cccc(C(=O)O)c2O)B(O)O)cc1 came out at 4
